# testName: small molecules captured by biotinylated probe aFGF10 – biochemical, small-molecule microarray, fluorescence 635/667, stem cell growth factor project, primary screen (AID 1071);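 note: score merges 667 nm spot intensity and signal to noise from triplicate slides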
# testParameters: higher = more signal
measureName: composite z-score

compound=NC(=O)NCC#Cc1ccc2c(c1)[C@]1(C(=O)N2)[C@H](c2ccccc2OCCO)N2[C@H](c3ccccc3)[C@H](c3ccccc3)OC(=O)[C@H]2[C@@H]1C(=O)O measurename="composite z-score" assayvalue=-0.0167
compound="O=C1C2C=CC(C(O)c3cccc(O)c3)N(Nc3ccc([N+](=O)[O-])cc3)C2C(=O)N1c1ccccc1 (centres undefined)" measurename="composite z-score" assayvalue=0.765
compound=COC(=O)[C@@]1(Cc2ccccc2)[C@H]2c3cc(C(=O)N4CCCC4)n(CCc4ccccn4)c3C[C@H]2CN1C(=O)c1ccccc1 measurename="composite z-score" assayvalue=0.283
compound=CC[C@@H]1O[Si](C(C)C)(C(C)C)c2c1cc(-c1cc(C)c(OC)c(C)c1)nc2-c1ccc(Oc2ccccc2)cc1 measurename="composite z-score" assayvalue=-0.0323
compound="C[C@@H]1NC(=O)[C@@H](Cc2ccccc2)NC(=O)[C@@]23C(=O)N[C@@H](Cc4ccccc4)C2[C@H](C)[C@@]2(C)O[C@H]2C3/C=C/C/C=C\\CNC1=O (some centres undefined)" measurename="composite z-score" assayvalue=-0.211
compound=COc1ccc([Si](C)(C)[C@@H]2[C@@H](CC(=O)N3Cc4ccccc4C[C@H]3CO)O[C@]3(C(=O)N(Cc4ccc(N5C(=O)c6cccc7cccc5c67)cc4)c4ccccc43)[C@H]2C)cc1 measurename="composite z-score" assayvalue=0.637
compound=C#Cc1cc2ccccc2oc1=O measurename="composite z-score" assayvalue=-0.232
compound=CCCNC(=O)[C@@]1(Sc2ccc(C)cc2)CC(=O)N(C2Cc3ccccc3C2)[C@@H]1c1ccc(CO)cc1I measurename="composite z-score" assayvalue=0.0119
compound=CCOC(=O)C1=CC[C@@H](c2ccccc2F)N(S(=O)(=O)c2ccc(C)cc2)[C@H]1c1ccccc1 measurename="composite z-score" assayvalue=0.765
compound=CCOC(=O)C1=C[C@@H](C(C)(C)C)N(S(=O)(=O)c2ccc(C)cc2)[C@H]1c1cccc2ccccc12 measurename="composite z-score" assayvalue=0.0331
compound=COCCOC(=O)N1C(=O)[C@@]2(c3cc(C#CCC(C(=O)OC)C(=O)OC)ccc31)[C@H](c1ccc(OCCO)cc1)N1[C@H](c3ccccc3)[C@H](c3ccccc3)OC(=O)[C@H]1[C@@H]2C(=O)N1CCc2cc(OC)c(OC)cc2C1 measurename="composite z-score" assayvalue=0.953
compound=CC1=C2[C@@H](CCc3ccccc3)OB(O)C[C@@H]2[C@@H]2C(=O)N(C)C(=O)[C@@H]2C1 measurename="composite z-score" assayvalue=0.496
compound=CCOC(=O)C[C@H]1[C@H](OC(=O)Cc2ccc3c(c2)OCO3)[C@@H](NC(=O)c2ccc3ccccc3n2)c2cc(OCCCO)ccc2N1C(=O)c1ccc2ccccc2n1 measurename="composite z-score" assayvalue=1.03
compound=CC[C@@H]1C=C(C(=O)O)[C@H](c2ccccc2)N1S(=O)(=O)c1ccc(C)cc1 measurename="composite z-score" assayvalue=0.829
compound=CC(=O)NCCCC[C@@H]1NC(=O)[C@@H]2C[C@H](C(=O)NCCCCCN)[C@H](c3cccc(OCCO)c3)N2C1=O measurename="composite z-score" assayvalue=0.742
compound=C=C(COC)/C(=C/C[C@H](OC(=O)c1ccncc1)c1ccccc1OCCO)c1cc(C(=O)OC)ccc1OC measurename="composite z-score" assayvalue=0.67
compound=CC(C)N1C(=O)c2ccccc2[C@@H](C(=O)NCCN2CCOCC2)[C@@H]1c1ccc(CO)cc1 measurename="composite z-score" assayvalue=-1.54
compound="C=CCC(OC(C)=O)[C@@H]1[C@@H](N(Cc2cccc3ccccc23)C(=O)Cc2ccc(OC)cc2)c2cc(OCCCO)ccc2N1C(=O)c1ccc(-c2ccccc2)cc1 (some centres undefined)" measurename="composite z-score" assayvalue=-0.153
compound=CCOC(=O)C[C@H]1[C@H](OC(=O)Cc2ccc3c(c2)OCO3)[C@@H](NC(=O)c2ccc3ccccc3n2)c2cc(OCCCO)ccc2N1C(=O)c1ccccc1 measurename="composite z-score" assayvalue=0.202
compound=COC(=O)[C@@]1(Cc2ccc(OC)cc2)[C@H]2c3cc(C(=O)N(C)C)n(Cc4ccc(C)o4)c3C[C@H]2CN1C(=O)c1ccccc1 measurename="composite z-score" assayvalue=0.423
compound="Cc1ccc(C(C)CC(O)C2C=CC3C(=O)N(c4ccccc4)C(=O)C3N2Nc2ccccc2)o1 (centres undefined)" measurename="composite z-score" assayvalue=0.504
compound=CCCC=C(CCC)[C@@H](NS(=O)(=O)c1ccc(C(F)(F)F)cc1)c1ccccc1 measurename="composite z-score" assayvalue=-0.0601
compound=COc1ccc([Si](C)(C)[C@@H]2[C@@H](CC(=O)N3CCC[C@H]3CO)O[C@]3(C(=O)N(Cc4cccc(N5C(=O)COc6ccccc65)c4)c4ccccc43)[C@H]2C)cc1 measurename="composite z-score" assayvalue=0.428
compound="CCCCC(CC)C(O)C1C=CC2C(=O)N(C)C(=O)C2N1Nc1ccccc1 (centres undefined)" measurename="composite z-score" assayvalue=0.264
compound=C=C(/C(=C/C[C@H](OC(=O)c1ccncc1)c1ccc(CO)o1)c1cnc2ccccc2c1)C(C)C measurename="composite z-score" assayvalue=1.21
compound=C=CCN1Cc2ccccc2[C@@H]2OC(c3ccc(OCCCO)cc3)=N[C@]2(CC=C)C1=O measurename="composite z-score" assayvalue=0.0911
compound=O=C1[C@H]2C=C(I)[C@H](C[C@@H]2OCCOCCO)[C@@]12CO2 measurename="composite z-score" assayvalue=0.454
compound="COc1cc(C(O)C2C=CC3C(=O)N(C)C(=O)C3N2Nc2ccccc2)cc(OC)c1OC (centres undefined)" measurename="composite z-score" assayvalue=0.602
compound=CCOC(=O)C[C@H]1[C@H](OC(=O)c2ccc(C(=O)c3ccccc3)cc2)[C@@H](NC(=O)c2ccc(-c3ccccc3)cc2)c2cc(OCCCO)ccc2N1C(=O)Cc1ccc(OC)cc1 measurename="composite z-score" assayvalue=0.034

Value source: PubChem BioAssay
